Target: T1, UNK ZnF1-3 (human, UniProt Q9C0B0 31-174)
T1 sequence: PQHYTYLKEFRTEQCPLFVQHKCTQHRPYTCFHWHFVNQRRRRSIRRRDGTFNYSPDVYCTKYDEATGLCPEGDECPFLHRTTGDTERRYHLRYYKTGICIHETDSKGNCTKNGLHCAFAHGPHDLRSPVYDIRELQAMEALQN
Assay: nsRBNS (natural sequence RNA bind-n-seq); RBNS binding buffer (assumed for nsRBNS): 25 mM Tris pH 7.5, 150 mM KCl, 3 mM MgCl2, 0.01% Triton X-100, 500 ug/ml BSA, 20 U/ml SUPERase-In, 4 C; UNK is unkempt and MSI1 is Musashi-1; names of the RNAs are library labels; protein concentration not given here; high values mean tight binding
In all, about 24,000 sequences were measured (“enrichment r”: median about 0.99, highest 2% from about 3.7 on). Shown is part of a subset that was picked to be rich in the highest values.
Label scheme for binding signal: lower than 0.8 enrichment R is rule not met, 0.8 enrichment R and above is rule met.

# binder, label_class
rows = [
    ("chr6:128323885:128323886:+_ENSMUSG00000001517_ENSMUST00000073316|mus_mus|motif|central (ssRNA) RNA: GGGAGUUCUACAGUCCGACGAUCAGGGUCCUCCUCCAGGCCAGGGAAACUGAUGUCUAGAAGGAUCUUGCUGAGGCGGUCAUUCAUUGUGUCCAGGACAAGGCCUUCUGUGAGAGAACGGUUGGCUGAAAGGCUGGGAAUCUGCAACAGAGGAUUGAGCAUCA", "rule met"),
    ("chr4:175231952:175231953:+_ENSG00000164118_ENST00000503780|hu_hu|motif|central (ssRNA) RNA: GGGAGUUCUACAGUCCGACGAUCAUUCAGAAGGUCCAUGUCACUACAAGAAGCGUAGUCUUCACUAACUUCAUUAAACUCGGUAAAUUCAUCAUUCUUUUUAGACAAAAGCAUUUCUGUUUCAAGAAGAGUGACACGACUAAGCAACAGAGGAUUGAGCAUCA", "rule not met"),
    ("chr17:64801638:64801639:+_ENSG00000154229_ENST00000413366|hu_mus|hu_hu_hu_mus_False|78_98 (ssRNA) RNA: GGGAGUUCUACAGUCCGACGAUCUAUAUAUAUAUAUAUAUACACACACAUAUAUAGUAAGAGCCUAGUUAAACGUGUAAAGUAGCCAUUCAUUUUUAAAAUUACAUCUACAUUAAAAAAUUAAUAUAUCUGAUAGAGUGCCAGCAACAGAGGAUUGAGCAUCA", "rule met"),
    ("chr5:69964302:69964303:+_ENSMUSG00000029208_ENSMUST00000154728|mus_hu|FALSE|FALSE (ssRNA) RNA: GGGAGUUCUACAGUCCGACGAUCUGCAGUCUGGUUUGUUCGUUGGCUGAAUAAACAUGGGAGCUGAGAGCUCUGGAGAAAUACAGCCAUUUACUGGCUGUGAAAUCUCAAGUUAACUACUCUAAAAUCGCUUCGAUUAUGAAACAACAGAGGAUUGAGCAUCA", "rule not met"),
    ("chr17:64801638:64801639:+_ENSG00000154229_ENST00000413366|hu_mus|hu_hu_hu_mus_False|28_88 (ssRNA) RNA: GGGAGUUCUACAGUCCGACGAUCUAUAUAUAUAUAUACAUAUGUACACAUAUGUAGUAAAACCCUAGUUAAACGUGUAAAGUAGCCAUUCAUUUUUAAAAUUACAUCUACAUUUAAAAAUUAAUAUAUCUGAUAGAGUGCCAGCAACAGAGGAUUGAGCAUCA", "rule met"),
    ("chr7:149068622:149068623:-_ENSMUSG00000025139_ENSMUST00000001950|mus_hu|mus_mus_mus_hu_False|8_28 (ssRNA) RNA: GGGAGUUCUACAGUCCGACGAUCGUGAGGCCUCUGAGUGUGGCUUGUGGUCUGUCCUGGGUUAGAGUUGUUAAUAUCACGGAACAUACCAUCUAGAACGUUCCAGUCUGCCUGACUACCUUCAUUCGCAAGAGGGCAGAAAUCCAACAGAGGAUUGAGCAUCA", "rule not met"),
    ("chr11:9468696:9468697:+_ENSG00000205339_ENST00000379719|hu_hu|FALSE|FALSE (ssRNA) RNA: GGGAGUUCUACAGUCCGACGAUCCAUUAACAAUAAUGUGAAAAUUAGAAUUAUGAAUUCAAAAAGCAGUGAAGUCUGAAAAUUUAAAAAGUAGACUAGGUAUUAGGGGAUUAAAGGUAAAGGAAGACGAGAAUGUUUCUUUAACAACAGAGGAUUGAGCAUCA", "rule met"),
    ("chr2:39278355:39278356:-_ENSG00000115904_ENST00000402219|hu_mus|motif|central (ssRNA) RNA: GGGAGUUCUACAGUCCGACGAUCACAGCUUCCUACUAAUGGGUGGGGACUGCCUUCAUCUGUCAUUUCUACAGUAUCUUCGGUAUGGCCCAGUAACUUUACACUAAGUUCAUGUAUAUCUACUAUACGACUGAAUAUGUUUUCCAACAGAGGAUUGAGCAUCA", "rule not met"),
    ("chr2:69705335:69705336:+_ENSMUSG00000068882_ENSMUST00000090852|mus_mus|FALSE|FALSE (ssRNA) RNA: GGGAGUUCUACAGUCCGACGAUCUUGGCCUUUAUCGUCUAGCCAUUCUUUUAUAUCAUCAAGGGUGGCGUCAGUUGGGAAACCUUUAAUAUAAACAGAUCUGUUUUUUACAUCAUUCUUAUACUCAUCCGUCACUUCAGGGAGCAACAGAGGAUUGAGCAUCA", "rule met"),
    ("chr1:39494447:39494448:+_ENSG00000168653_ENST00000372967|hu_mus|hu_hu_hu_mus_False|38_58 (ssRNA) RNA: GGGAGUUCUACAGUCCGACGAUCGCACCGAGCGGCGUUCUUAUAGGGCUGUUCUGCGCUUAGGAACAUAAAGUGCCGAUCUAUGUUGAUGCCCAGCCUUUUCUGGAUGUCAAGGAAAGGCAUGGCUCUGCAGUGCCCUUGUCACAACAGAGGAUUGAGCAUCA", "rule not met"),
    ("chr7:90019630:90019631:+_ENSMUSG00000057706_ENSMUST00000082237|mus_hu|motif|central (ssRNA) RNA: GGGAGUUCUACAGUCCGACGAUCUAUAUCACUGAAUAGAAAAUAUGCUGGGUGAAGCAGAUCUAGAAGAUUUGUCUGAACCGGUAAAAUCUCCAUCCCAACAGAAUACUGUUCAAAACAUUACACAUUUUAUGGUUGUAAUUCCAACAGAGGAUUGAGCAUCA", "rule not met"),
    ("chr7:19156472:19156473:-_ENSG00000122691_ENST00000242261|hu_mus|FALSE|FALSE (ssRNA) RNA: GGGAGUUCUACAGUCCGACGAUCGCUGCAGCUUGCCAUCUUGGAGUCCAGCUCGUCGCUCUGCAGGACCUGGUACAGGAAGUCGAUGUACCUGGCCGCCAGUUUGAGGGUCUGAAUCUUGCUCAGCUUGUCCGAGGGCAGCGUCAACAGAGGAUUGAGCAUCA", "rule met"),
    ("chr1:84720644:84720645:-_ENSMUSG00000026219_ENSMUST00000027421|mus_hu|FALSE|FALSE (ssRNA) RNA: GGGAGUUCUACAGUCCGACGAUCUGAAUUUUAAAUUAGAUCUUAACUGGAGAGAACAUGGGACAACAGAAGCCCAUGGGUAACGAAAAUUUGAGAACUGUGAGUUGUAUACAAAAAAAAAACUGUGAGCUGCACAGAUAAUAACAACAGAGGAUUGAGCAUCA", "rule met"),
]
